Biological target: C-C chemokine receptor type 3 (Homo sapiens)
Sequence (P51677 whole entry): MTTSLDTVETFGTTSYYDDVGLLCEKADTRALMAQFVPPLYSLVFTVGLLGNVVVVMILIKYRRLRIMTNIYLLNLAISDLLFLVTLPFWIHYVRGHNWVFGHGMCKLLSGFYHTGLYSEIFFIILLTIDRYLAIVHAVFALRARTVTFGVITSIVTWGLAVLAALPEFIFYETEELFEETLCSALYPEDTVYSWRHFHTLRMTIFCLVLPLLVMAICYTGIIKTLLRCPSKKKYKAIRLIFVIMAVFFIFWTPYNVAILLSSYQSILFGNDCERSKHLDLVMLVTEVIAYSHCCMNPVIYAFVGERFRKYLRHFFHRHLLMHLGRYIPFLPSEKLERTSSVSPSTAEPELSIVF
Field: pKi. System: C-C chemokine receptor type 3 (Homo sapiens). Provenance: assorted publications.
Numbers only, as −log10 of the molar value.

Take a look at these entries with their results.
{"compound": "CC(C)CC(CNC(=O)Nc1cc(Cl)cc(Cl)c1)N1CCN(C2CCCCC2)CC1 (stereo not drawn)", "valueType": "pKi", "recordedNumber": 6.53}
{"compound": "N=c1c2cccnc2nc2n1CC/C2=C\\c1ccccc1Br", "valueType": "pKi", "recordedNumber": 6.09}

Consider now this further compound.
Missing value: pKi, C-C chemokine receptor type 3 (Homo sapiens), entry `N#Cc1cccc(S(=O)(=O)NC(=O)N2CCC(N3CCC(Oc4ccc(Cl)c(Cl)c4)CC3)CC2)c1` . Fill in? 7.00

---

// compounds with reported pKi on C-C chemokine receptor type 3 (Homo sapiens, UniProt P51677), multi-publication
One number for each entry, as −log10 of the molar value.

{"compound": "Cc1ccc(NC(=O)NCC(CC(C)C)N2CCN(c3ccc(Cl)c(Cl)c3)CC2)cc1 (stereo not given)", "recordedNumber": 6.75}
{"compound": "COc1ccccc1NC(=O)NCC(c1ccc(C(F)(F)F)cc1)N1CCN(C)CC1 (stereo not given)", "recordedNumber": 5.47}
{"compound": "O=C(NS(=O)(=O)c1cccc(C(F)(F)F)c1)N1CCC(N2CCC(Oc3ccc(Cl)c(Cl)c3)CC2)CC1", "recordedNumber": 7.50}

I need pKi for every entry listed below, if you could help.
1. N=c1c2c(C3CC3)csc2nc2n1CC/C2=C\c1ccccc1Br
2. N#C/N=c1/c2ccccc2nc2n1CC/C2=C\c1ccccc1Br

6.54
5.21

---

// cross-study collection: log10 of Ki for C-C chemokine receptor type 3 (Homo sapiens, UniProt P51677)
Plainly stated, the numbers are log10 of Ki given in nM.

The examples below pair each entry with its known result.
{"compound": "COc1ccc(C(CNC(=O)Nc2cc(Cl)cc(Cl)c2)N2CCN(C3CCCCC3)CC2)cc1 (centres undefined)", "log10 of Ki": 2.92}
{"compound": "CC(C)(C)c1ccc(C(CNC(=O)Cc2ccccc2)N2CCN(c3ccccc3)CC2)cc1 (centres undefined)", "log10 of Ki": 4.05}
{"compound": "Fc1ccc2c(c1)nc(CC(F)(F)F)n2C1CCNCC1", "log10 of Ki": 2.00}

Return reported log10 of Ki values for all items listed beneath this line.
1. O=C(c1ccc(-c2nc(=O)o[nH]2)cc1)N1CCC(N2CCC(Oc3ccc(Cl)c(Cl)c3)CC2)CC1
2. Cc1ccc(CC(=O)NCC(c2ccccc2)N2CCN(c3ccccc3)CC2)cc1 (centres undefined)
3. CN(C)c1ccc(CCNCC(c2ccc(C(C)(C)C)cc2)N2CCN(C3CCCCC3)CC2)cc1 (centres undefined)

[2.50, 4.43, 2.49]

---

We begin with pKi values for UniProt:P51677, as collected from the published literature.
Answers are plain numbers, as −log10 of the molar value.

Sample records with pKi:
{"compound": "O=C(NS(=O)(=O)c1ccc(Cl)cc1)N1CCC(N2CCC(Oc3ccc(Cl)c(Cl)c3)CC2)CC1", "pKi": 8.10}
{"compound": "Fc1ccc(C2C/C(=C\\c3ccccc3Br)C3=Nc4ccccc4CN32)cc1 (centres undefined)", "pKi": 5.10}

Could you tell me pKi for each of these compounds? They are listed below.
1. COc1ccc(S(=O)(=O)NC(=O)N2CCC(N3CCC(Oc4ccc(Cl)c(Cl)c4)CC3)CC2)cc1
2. O=C(O)COc1cccc(C(=O)N2CCC(N3CCC(Oc4ccc(Cl)c(Cl)c4)CC3)CC2)c1
3. COc1ccccc1S(=O)(=O)NC(=O)N1CCC(N2CCC(Oc3ccc(Cl)c(Cl)c3)CC2)CC1

[7.40, 6.60, 7.60]

List the reported pKi of each compound below.
1. Cc1ccc(S(=O)(=O)N(C)C(=O)N2CCC(N3CCC(Oc4ccc(Cl)c(Cl)c4)CC3)CC2)cc1
2. Cc1cc(C)cc(NC(=O)NCC(c2ccc(-c3ccccc3)cc2)N2CCN(C3CCCCC3)CC2)c1 (centres undefined)
3. Fc1ccc(CCNCC(c2ccc(C(F)(F)F)cc2)N2CCN(C3CCCCC3)CC2)cc1 (centres undefined)

1. 7.00
2. 6.49
3. 6.05

Given the compound CN1CCN(C(CNC(=O)Nc2cc(Cl)cc(Cl)c2)c2ccc(N(C)C)cc2)CC1 (centres undefined) , what is its reported pKi? 5.42

---

What follows is literature data on pKi for C-C chemokine receptor type 3 (Homo sapiens, UniProt P51677).
One number for each entry, as −log10 of the molar value.

{"molecule": "CC(C)(C)c1ccc(C(CNCCc2cc(Cl)cc(Cl)c2)N2CCN(C3CCCCC3)CC2)cc1 (stereo not drawn)", "pKi": 6.65}
{"molecule": "O=C(c1ccc(-c2nn[nH]n2)cc1)N1CCC(N2CCC(Oc3ccc(Cl)c(Cl)c3)CC2)CC1", "pKi": 6.70}
{"molecule": "O=C(NS(=O)(=O)c1ccc(F)cc1)N1CCC(N2CCC(Oc3ccc(Cl)c(Cl)c3)CC2)CC1", "pKi": 7.50}

Dear reader, for each entry below, please note its pKi.
1. CCCCC1C/C(=C\c2ccccc2Br)C2=Nc3ccccc3CN21 (stereo not drawn)
2. COc1ccccc1C(CNC(=O)Nc1ccc(F)cc1)N1CCN(C2CCCCC2)CC1 (stereo not drawn)
3. CN(C)c1ccccc1S(=O)(=O)NC(=O)N1CCC(N2CCC(Oc3ccc(Cl)c(Cl)c3)CC2)CC1
4. Cc1ccc(S(=O)(=O)NC(=O)N2CCC(N3CCC(Oc4ccc(Cl)c(C)c4Cl)CC3)CC2)cc1
5. CN(C)c1ccc(S(=O)(=O)NC(=O)N2CCC(N3CCC(Oc4ccc(Cl)c(Cl)c4)CC3)CC2)cc1

[6.60, 5.27, 7.50, 9.20, 7.30]
